- measurement_target: human Nav1.6 (hNav1.6) (Homo sapiens)
- Construct: expressed in transfected cells; host or cells: HEK-293 (G418 selection)
- Sequence (Q9UQD0 whole entry): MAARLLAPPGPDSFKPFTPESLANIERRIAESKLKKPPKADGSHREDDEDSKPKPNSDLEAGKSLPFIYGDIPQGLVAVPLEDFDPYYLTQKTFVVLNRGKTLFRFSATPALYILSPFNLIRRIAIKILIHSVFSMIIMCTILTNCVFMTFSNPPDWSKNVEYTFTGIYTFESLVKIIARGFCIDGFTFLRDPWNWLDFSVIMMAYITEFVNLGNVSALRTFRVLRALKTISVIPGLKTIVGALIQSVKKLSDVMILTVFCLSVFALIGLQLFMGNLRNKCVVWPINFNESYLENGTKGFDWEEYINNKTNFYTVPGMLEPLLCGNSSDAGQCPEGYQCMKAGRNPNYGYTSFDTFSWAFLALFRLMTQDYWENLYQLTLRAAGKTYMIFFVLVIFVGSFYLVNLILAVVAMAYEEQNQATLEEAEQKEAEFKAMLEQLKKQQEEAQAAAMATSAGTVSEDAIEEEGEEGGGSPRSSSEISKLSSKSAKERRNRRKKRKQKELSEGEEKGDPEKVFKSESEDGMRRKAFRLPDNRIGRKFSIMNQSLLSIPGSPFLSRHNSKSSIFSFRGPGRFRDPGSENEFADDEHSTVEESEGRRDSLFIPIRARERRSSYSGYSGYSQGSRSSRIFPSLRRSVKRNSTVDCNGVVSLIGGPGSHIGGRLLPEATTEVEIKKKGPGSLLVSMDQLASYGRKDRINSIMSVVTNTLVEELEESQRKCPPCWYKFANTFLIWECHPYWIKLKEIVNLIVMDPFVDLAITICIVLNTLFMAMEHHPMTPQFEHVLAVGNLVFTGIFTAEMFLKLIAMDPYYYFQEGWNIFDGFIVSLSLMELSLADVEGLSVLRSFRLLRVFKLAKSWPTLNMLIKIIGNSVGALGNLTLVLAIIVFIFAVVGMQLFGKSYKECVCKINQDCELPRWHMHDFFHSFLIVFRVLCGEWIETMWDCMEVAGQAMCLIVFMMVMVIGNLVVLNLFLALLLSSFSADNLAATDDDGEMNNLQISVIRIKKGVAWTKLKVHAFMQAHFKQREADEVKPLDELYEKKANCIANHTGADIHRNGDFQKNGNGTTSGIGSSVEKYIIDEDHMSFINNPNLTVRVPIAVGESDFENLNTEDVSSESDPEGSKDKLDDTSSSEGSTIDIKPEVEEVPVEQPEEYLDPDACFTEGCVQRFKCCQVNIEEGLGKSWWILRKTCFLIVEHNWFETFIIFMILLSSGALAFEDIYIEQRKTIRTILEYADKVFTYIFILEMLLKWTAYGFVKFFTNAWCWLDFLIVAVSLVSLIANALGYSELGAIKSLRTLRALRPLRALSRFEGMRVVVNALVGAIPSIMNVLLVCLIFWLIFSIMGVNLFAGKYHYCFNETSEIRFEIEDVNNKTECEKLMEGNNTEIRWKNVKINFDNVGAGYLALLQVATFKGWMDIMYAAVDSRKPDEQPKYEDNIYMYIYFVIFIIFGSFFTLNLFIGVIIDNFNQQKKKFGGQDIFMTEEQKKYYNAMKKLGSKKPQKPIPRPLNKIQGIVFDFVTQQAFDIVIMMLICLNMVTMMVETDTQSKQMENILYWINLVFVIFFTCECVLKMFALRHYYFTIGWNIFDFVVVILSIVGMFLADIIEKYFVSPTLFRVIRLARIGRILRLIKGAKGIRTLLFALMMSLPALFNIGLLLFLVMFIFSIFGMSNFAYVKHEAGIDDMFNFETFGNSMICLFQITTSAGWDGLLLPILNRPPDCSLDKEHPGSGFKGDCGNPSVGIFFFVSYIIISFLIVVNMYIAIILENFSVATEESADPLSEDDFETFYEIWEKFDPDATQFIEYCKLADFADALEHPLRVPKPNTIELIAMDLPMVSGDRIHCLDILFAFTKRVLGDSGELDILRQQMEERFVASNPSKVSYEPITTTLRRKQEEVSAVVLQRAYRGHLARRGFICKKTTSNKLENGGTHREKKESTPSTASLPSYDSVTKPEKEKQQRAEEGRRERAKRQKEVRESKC
- experiment: Modulation of late sodium current (INaL), PatchXpress electrophysiology, ATX-II evoked
- Format: cell-based
- reported_conditions: HEK293; 1 μM compound; HEK-293 cells expressing recombinant human Nav1.6; late current evoked by 300 nM ATX-II; read-out: INaL v1.6 (1 μM, % Inhibition)
observation_type: inhibition at 1 µM

compound=C[C@@H](Oc1ncc(-c2ccn3nncc3c2)cc1F)C(F)(F)F measurement_target="human Nav1.6 (hNav1.6) (Homo sapiens)" value_observed="> 70%"
compound=COCc1cc(-c2ccn3nncc3c2)ccc1OC(F)(F)F measurement_target="human Nav1.6 (hNav1.6) (Homo sapiens)" value_observed="30 to 70%"
compound=Cc1cc(-c2cnc(O[C@H](C)C(F)(F)F)c(F)c2)cc2cnnn12 measurement_target="human Nav1.6 (hNav1.6) (Homo sapiens)" value_observed="30 to 70%"
compound=Cc1nnn2ccc(-c3ccc(OC(F)(F)F)cc3)cc12 measurement_target="human Nav1.6 (hNav1.6) (Homo sapiens)" value_observed="> 70%"
compound=C[C@@H](Oc1ncc(-c2ccn3nnc(C(F)F)c3c2)cc1F)C(F)(F)F measurement_target="human Nav1.6 (hNav1.6) (Homo sapiens)" value_observed="> 70%"
compound=C[C@H](Oc1ncc(-c2ccn3nnc(C(F)(F)F)c3c2)cc1F)C(F)(F)F measurement_target="human Nav1.6 (hNav1.6) (Homo sapiens)" value_observed="> 70%"
compound=[2H]C([2H])(OC)c1nnn2ccc(-c3cnc(OC(C)(C)C(F)(F)F)c(F)c3)cc12 measurement_target="human Nav1.6 (hNav1.6) (Homo sapiens)" value_observed="> 70%"
compound="FC1(F)C[C@H]1c1ccc(-c2ccn3nncc3c2)cc1 (single isomer, unassigned)" measurement_target="human Nav1.6 (hNav1.6) (Homo sapiens)" value_observed="> 70%"
compound=FC(F)(F)Oc1ccc(-c2ccn3nncc3c2)cc1 measurement_target="human Nav1.6 (hNav1.6) (Homo sapiens)" value_observed="> 70%"
